molecular target: AAV5 (adeno-associated virus serotype 5); experiment: SPR, AAV on CM5 chip
quantity_measured: Kd (nM)
# output: bare number, implied unit nM

Value of measured Kd for the entry A4-B2 (bispecific antibody) VQLQESGGGLVQAGGSLRLSCAASGSRFSINTMGWYRQAPGKQREFVATVTRGGNTNYAESVKGRFTISRDNAKNTVYLQMNSLRPEDTAVYYCHVDEVRDSSWTTSNIWGQGTQVTVSSGGGGSGGGGSGGGGSVQLQESGGGLVQAGGSLRLSCAASGSTFSINTMGWYRQAPGKQRELVATITRGGNTNYADSVKGRFTISRDNAKNTVYLQMNSLRPEDTAVYYCHVDEVRQSSWTTSNLWGQGTQVTVSS : 7.38

Value of measured Kd for the entry A4-C3 (bispecific antibody) VQLQESGGGLVQPGGSLRLSCAASGSIFSINLMGWYRQAPGKQRELVATITRGGNTNYAGSVKGRFTISRDNAKNTVYLQMNSLRPEDTAVYYCHVDEVRQSSWTTSNLWGQGTQVTVSSGGGGSGGGGSGGGGSVQLQESGGGLVQPGGSLRLSCAASGSIFSINLMGWYRQAPGKQRELVATITRGGNTNYAGSVKGRFTISRDNAKNTVYLQMNSLRPEDTAVYYCHVDEVRQSSWTTSNLWGQGTQVTVSSGGGGSGGGGSGGGGSVQLQESGGGLVQPGGSLRLSCAASGSNFRINTMGWYRQAPGKQRELVATVTRGGSTNYADSVKGRFTISRDNPKDTVYLQMNSLRPEDTAVYYCHVDEVRESSWTTSNLWGQGTQVTVSS : 0.628

Value of measured Kd for the entry A4-C1 (VHH) VQLQESGGGLVQPGGSLRLSCAASGSGFSINTMGWYRQAPGKQRELVATVTRDGSTNYADFVKGRFTISRDNAKNTVYLQMNSLRPEDTAVYYCHLDEVRESSWTTSNLWGQGTQVTVSSGGGGSGGGGSGGGGSVQLQESGGGLVQPGGSLRLSCAASGSGFSINTMGWYRQAPGKQRELVATVTRDGSTNYADFVKGRFTISRDNAKNTVYLQMNSLRPEDTAVYYCHLDEVRESSWTTSNLWGQGTQVTVSSGGGGSGGGGSGGGGSVQLQESGGGLVQPGGSLRLSCAASGSGFSINTMGWYRQAPGKQRELVATVTRDGSTNYADFVKGRFTISRDNAKNTVYLQMNSLRPEDTAVYYCHLDEVRESSWTTSNLWGQGTQVTVSS : 13.2

Here is the next item to consider.
Value of measured Kd for the entry A4-B1 (VHH) VQLQESGGGLVQPGGSLRLSCAASGSIFSINLMGWYRQAPGKQRELVATITRGGNTNYAGSVKGRFTISRDNAKNTVYLQMNSLRPEDTAVYYCHVDEVRQSSWTTSNLWGQGTQVTVSSGGGGSGGGGSGGGGSVQLQESGGGLVQPGGSLRLSCAASGSIFSINLMGWYRQAPGKQRELVATITRGGNTNYAGSVKGRFTISRDNAKNTVYLQMNSLRPEDTAVYYCHVDEVRQSSWTTSNLWGQGTQVTVSS : 0.102

Data provenance: patent US20260193326A1
